assay: logP by LC-MS, method [b], acidic range pH 2.7; assay type: physicochemical; details: pH 2.7
Recorded Metric: log p

COC(=O)c1ccc(Nc2ncc(Br)c(NC3CCC3)n2)cc1 : 2.84[b]
FC(F)Oc1ccc(Nc2ncc(Br)c(NC3CCC3)n2)cc1 : 2.5[b]

# input for lookup
The compound listed as C=CC(=O)Nc1cccc(Nc2ncc(Br)c(NC3CCC3)n2)c1 has a reported log p of 1.71[b]

* * *

test: logP by LC-MS, method [b], acidic range pH 2.7; type: physicochemical; settings: pH 2.7
The reader will find reported log p values listed item by item below.

Consider the worked cases shown below.
CC(=O)Nc1cc(Nc2ncc(Cl)c(NC3CCC3)n2)ccc1C : 1.38[b]
O=C1N(CCCl)CCN1c1cccc(Nc2ncc(Br)c(NC3CCC3)n2)c1 : 2.19[b]
N#Cc1ccc(Nc2ncc(Br)c(NC3CCC3)n2)cc1 : 2.95[b]
C=CCNC(=O)c1ccc(Nc2ncc(Cl)c(NC3CCC3)n2)cc1 : 1.91[b]

# input for lookup
The molecule listed as COC(=O)Nc1cccc(Nc2ncc(Br)c(NC3CCC3)n2)c1 has a reported log p of 1.83[b]

* * *

experiment: logP by HPLC on reversed-phase columns (C 18), method [a], acidic range pH 2.3; assay type: physicochemical; details: pH 2.3
Recorded Metric: log p

Consider the worked cases shown below.
O=C1CCCCCN1c1cccc(Nc2ncc(Br)c(NC3CCC3)n2)c1 : 2.08[a]
CCCCNS(=O)(=O)c1ccc(Nc2ncc(Cl)c(NC3CCC3)n2)cc1 : 2.91[a]
NS(=O)(=O)c1ccc(Nc2ncc(Cl)c(NC3CCC3)n2)cc1 : 1.62[a]

The compound listed as O=C1CCCCN1c1cccc(Nc2ncc(Br)c(NC3CCC3)n2)c1 has a reported log p of 1.77[a]

The compound listed as O=C1CCCN1c1cc(Nc2ncc(Cl)c(NC3CCC3)n2)ccc1F has a reported log p of 1.75[a]

The compound listed as CN(C)S(=O)(=O)c1ccc(Nc2ncc(Cl)c(NC3CCC3)n2)cc1.Cl has a reported log p of 2.58^[a]

The compound listed as Fc1ccc(Nc2ncc(Cl)c(NC3CCC3)n2)cc1 has a reported log p of 2.15[a];

The compound listed as CC1CC(C)CN(c2cccc(Nc3ncc(Cl)c(NC4CCC4)n3)c2)C1 (stereo not drawn) has a reported log p of 2.94[a];

The compound listed as O=C1CCCN1c1cccc(Nc2ncc(C(F)(F)F)c(NC3CCC3)n2)c1 has a reported log p of 2.64[a];

* * *

The reader will find reported log p values listed item by item below.
assay: logP by LC-MS, method [b], acidic range pH 2.7; assay type: physicochemical; settings: pH 2.7

Consider the worked cases shown below.
COC(=O)Nc1ccc(Nc2ncc(Cl)c(NC3CCC3)n2)cc1 : 1.61[b]
CS(=O)(=O)c1ccc(Nc2ncc(Cl)c(NC3CCC3)n2)cc1 : 2.09[b]
N#CCc1ccc(Nc2ncc(Cl)c(NC3CCC3)n2)cc1 : 1.88[b]
Oc1ccc(Nc2ncc(Br)c(NC3CCC3)n2)cc1 : 1.27[b]
O=C1CCc2cc(Nc3ncc(Br)c(NC4CCC4)n3)ccc21 : 2.59[b]

The molecule listed as CN(C)S(=O)(=O)c1ccc(Nc2ncc(Br)c(NC3CCC3)n2)cc1 has a reported log p of 2.73[b]

The molecule listed as OC(c1cccc(Nc2ncc(Cl)c(NC3CCC3)n2)c1)C(F)(F)F (stereo not shown) has a reported log p of 2.04[b]

Origin of the recorded values: patent US20110105472A1
